- System: Primary adult CD34+ human hematopoietic stem cells (HSCs)
- methodNotes: % CD34+ assay: HSC expansion screen, dose response
- Type: cell-based
- measurementParameters: Homo sapiens, Hematopoietic stem cell; dose response 1 nM to 10 μM; total number and/or percent of CD34+ cells
Response field label: string, one of satisfied (EC50 strictly below 100 nM) or not satisfied.

Exam item: Hello, I'm reviewing records and need to know if EC50 of CC(C)n1cnc2c(NCCc3c[nH]c4c(F)cccc34)nc(-c3cncc(F)c3)nc21 is below 100 nM. Could you check?
Marked response: satisfied

Exam item: Hello, I'm reviewing records and need to know if EC50 of CC(C)n1cnc2c(NCCNC(N)=O)nc(-c3csc4ccccc34)nc21 is below 100 nM. Could you check?
Marked response: not satisfied

Exam item: Hello, I'm reviewing records and need to know if EC50 of Cc1ccc(Cn2cnc3c(NCCc4ccc(O)cc4)nc(-c4csc5ccccc45)nc32)cc1 is below 100 nM. Could you check?
Marked response: not satisfied

Exam item: Hello, I'm reviewing records and need to know if EC50 of Cc1cncc(-c2nc(NCCc3c[nH]c4ccccc34)c3ncn(C4COC4)c3n2)c1 is below 100 nM. Could you check?
Marked response: satisfied

Exam item: Hello, I'm reviewing records and need to know if EC50 of CC(C)n1cnc2c(NCCc3ccc(O)cc3)nc(-c3cccn3C)nc21 is below 100 nM. Could you check?
Marked response: not satisfied

Exam item: Hello, I'm reviewing records and need to know if EC50 of CC(C)Cn1cnc2c(NCCc3ccc(O)cc3)nc(-c3csc4ccccc34)nc21 is below 100 nM. Could you check?
Marked response: not satisfied

Exam item: Hello, I'm reviewing records and need to know if EC50 of CC(C)n1cnc2c(NCCc3ccc(O)cc3)nc(-c3cncc(S(C)(=O)=O)c3)nc21 is below 100 nM. Could you check?
Marked response: not satisfied

Exam item: Hello, I'm reviewing records and need to know if EC50 of CC(C)n1c(-c2ccc(-c3ccccc3)cc2)nc2c(NCc3ccccc3)ncnc21 is below 100 nM. Could you check?
Marked response: not satisfied

Exam item: Hello, I'm reviewing records and need to know if EC50 of CC(C)n1cnc2c(NCCc3ccc(O)c(Cl)c3)nc(-c3cccnc3)nc21 is below 100 nM. Could you check?
Marked response: not satisfied

Exam item: Hello, I'm reviewing records and need to know if EC50 of Oc1ccc(CCNc2nc(-c3cccnc3)nc3c2ncn3C2COC2)cc1 is below 100 nM. Could you check?
Marked response: not satisfied

Exam item: Hello, I'm reviewing records and need to know if EC50 of CC(C)n1cnc2c(NCCc3c[nH]c4cc(F)ccc34)nc(-c3cncc(F)c3)nc21 is below 100 nM. Could you check?
Marked response: satisfied

Exam item: Hello, I'm reviewing records and need to know if EC50 of CCc1nccn1-c1nc(NCCc2ccc(O)cc2)c2ncn(C(C)C)c2n1 is below 100 nM. Could you check?
Marked response: not satisfied

Exam item: Hello, I'm reviewing records and need to know if EC50 of CC(C)n1cnc2c(NCCc3c[nH]c4cc(O)ccc34)nc(-c3cncc(F)c3)nc21 is below 100 nM. Could you check?
Marked response: not satisfied

Exam item: Hello, I'm reviewing records and need to know if EC50 of Cc1nccn1-c1nc(NCCc2c[nH]c3ccccc23)c2ncn(C(C)C)c2n1 is below 100 nM. Could you check?
Marked response: satisfied

Exam item: Hello, I'm reviewing records and need to know if EC50 of CC(C)n1cnc2c(NCCc3ccc(O)cc3)nc(-c3csc4ccccc34)nc21 is below 100 nM. Could you check?
Marked response: not satisfied

Exam item: Hello, I'm reviewing records and need to know if EC50 of Cc1cc(CCNc2nc(-c3cccnc3)nc3c2ncn3C(C)C)n[nH]1 is below 100 nM. Could you check?
Marked response: not satisfied

Exam item: Hello, I'm reviewing records and need to know if EC50 of CC(C)n1cnc2c(NCCc3ccc(O)cc3)nc(-c3ccnnc3)nc21 is below 100 nM. Could you check?
Marked response: not satisfied

Exam item: Hello, I'm reviewing records and need to know if EC50 of CC(C)n1cnc2c(NCCc3ccc(O)cc3)nc(-c3cncc(C(F)(F)F)c3)nc21 is below 100 nM. Could you check?
Marked response: not satisfied

Exam item: Hello, I'm reviewing records and need to know if EC50 of Cc1ccc2c(CCNc3nc(-c4cncc(F)c4)nc4c3ncn4C(C)C)c[nH]c2c1 is below 100 nM. Could you check?
Marked response: satisfied

Exam item: Hello, I'm reviewing records and need to know if EC50 of COc1ccc2c(CCNc3nc(-c4cccnc4)nc4c3ncn4C(C)C)c[nH]c2c1 is below 100 nM. Could you check?
Marked response: not satisfied

Exam item: Hello, I'm reviewing records and need to know if EC50 of Fc1ccc(CCNc2nc(-c3csc4ccccc34)nc3c2ncn3-c2ccccc2)cc1 is below 100 nM. Could you check?
Marked response: not satisfied

Exam item: Hello, I'm reviewing records and need to know if EC50 of Cc1ccc(-c2nc(NCCc3ccc(O)cc3)c3ncn(C(C)C)c3n2)cn1 is below 100 nM. Could you check?
Marked response: not satisfied

Exam item: Hello, I'm reviewing records and need to know if EC50 of CC(C)n1cnc2c(NCCc3ccc(O)cc3)nc(-c3cnccc3C#N)nc21 is below 100 nM. Could you check?
Marked response: satisfied

Exam item: Hello, I'm reviewing records and need to know if EC50 of CC(C)n1cnc2c(NCCc3ccc(N)cc3)nc(-c3csc4ccccc34)nc21 is below 100 nM. Could you check?
Marked response: not satisfied

Exam item: Hello, I'm reviewing records and need to know if EC50 of CC(CO)n1cnc2c(NCCc3c[nH]c4ccccc34)nc(-c3cncc(F)c3)nc21 (stereo not shown) is below 100 nM. Could you check?
Marked response: satisfied

Exam item: Hello, I'm reviewing records and need to know if EC50 of CCC(C)n1cnc2c(NCCc3ccc(O)cc3)nc(-c3csc4ccccc34)nc21 (stereo not shown) is below 100 nM. Could you check?
Marked response: satisfied

Exam item: Hello, I'm reviewing records and need to know if EC50 of CC(C)n1cnc2c(NCCc3ccc(O)cc3)nc(-n3cnc4ccccc43)nc21 is below 100 nM. Could you check?
Marked response: satisfied

Exam item: Hello, I'm reviewing records and need to know if EC50 of CCC(C)n1cnc2c(NCCc3c[nH]c4ccccc34)nc(-c3cncc(C#N)c3)nc21 (stereo not shown) is below 100 nM. Could you check?
Marked response: satisfied

Exam item: Hello, I'm reviewing records and need to know if EC50 of Cc1cscc1-c1nc(NCCc2ccc(O)cc2)c2ncn(C(C)C)c2n1 is below 100 nM. Could you check?
Marked response: not satisfied

Exam item: Hello, I'm reviewing records and need to know if EC50 of COc1cc(CCNc2nc(-c3cccnc3)nc3c2ncn3C(C)C)ccc1O is below 100 nM. Could you check?
Marked response: not satisfied

Exam item: Hello, I'm reviewing records and need to know if EC50 of CC(C)n1cnc2c(NCCc3c[nH]c4ncccc34)nc(-c3cncc(F)c3)nc21 is below 100 nM. Could you check?
Marked response: not satisfied

Exam item: Hello, I'm reviewing records and need to know if EC50 of C=C(C)n1cnc2c(NCCc3c[nH]c4ccccc34)nc(-c3cncc(F)c3)nc21 is below 100 nM. Could you check?
Marked response: satisfied

Exam item: Hello, I'm reviewing records and need to know if EC50 of Oc1ccc(CCNc2nc(-c3csc4ccccc34)nc3c2ncn3Cc2ccc(C(F)(F)F)cc2)cc1 is below 100 nM. Could you check?
Marked response: not satisfied

Exam item: Hello, I'm reviewing records and need to know if EC50 of CC(C)n1cnc2c(NCCc3ccc(O)cc3)nc(-c3cncc(F)c3)cc21 is below 100 nM. Could you check?
Marked response: not satisfied

---

- Test system: Primary adult CD34+ human hematopoietic stem cells (HSCs)
- methodNotes: % CD34+ assay: HSC expansion screen, dose response
- Assay type: cell-based
- measurementParameters: Homo sapiens, Hematopoietic stem cell; dose response 1 nM to 10 μM; total number and/or percent of CD34+ cells
Field: EC50. Provide a value for each of the compounds that follow.
# value in nM; strip the unit string

response.value for Cc1ccc2[nH]cc(CCNc3nc(-c4cccnc4)nc4c3ncn4C(C)C)c2c1 [Example 62] (field: EC50) = 720

response.value for CC(C)n1cnc2c(NCCc3ccc(NS(C)(=O)=O)cc3)nc(-c3cccnc3)nc21 [Example 92] (field: EC50) = 7100

response.value for CC(C)n1cnc2c(NCCc3ccc(O)cc3)nc(-c3ccncc3)nc21 [Example 31] (field: EC50) = 660

response.value for CC(C)n1ccc2c(NCCc3ccc(O)cc3)nc(-c3cncc(F)c3)nc21 [Example 141] (field: EC50) = 160

response.value for COc1ccc2[nH]cc(CCNc3nc(-c4cncc(F)c4)nc4c3ncn4C(C)C)c2c1 [Example 172] (field: EC50) = 420

response.value for CC(C)n1cnc2c(NCCN3CCNC3=O)nc(-c3cccnc3)nc21 [Example 70] (field: EC50) = 2700

response.value for N#Cc1cncc(-c2nc(NCCc3ccc(O)cc3)c3ncn(C4COC4)c3n2)c1 [Example 133] (field: EC50) = 180

response.value for Cc1nccn1-c1nc(NCCc2ccc(O)cc2)c2ncn(C(C)C)c2n1 [Example 123] (field: EC50) = 66

The reported measurements were obtained from patent US9580426B2.
